conditions: in n-propyl acetate, 308.15 K
observable: solubility (mole fraction)

- COC(=O)[C@@H](N)CC(C)C.Cl: 0.00292

* * *

conditions: in 2-butanone, 308.15 K
observable: solubility (mole fraction)

* COC(=O)[C@@H](N)CC(C)C.Cl | 0.00238

* * *

conditions: in n-propyl acetate, 298.15 K
observable: solubility (mole fraction)

* COC(=O)[C@@H](N)CC(C)C.Cl | 0.00189

* * *

details: in ethyl acetate, 283.15 K
observable: solubility (mole fraction)

• COC(=O)[C@@H](N)CC(C)C.Cl = 0.000226

* * *

settings: in 2-butanone, 293.15 K
observable: solubility (mole fraction)

* COC(=O)[C@@H](N)CC(C)C.Cl | 0.00141

Data provenance: BigSolDB 2.1
